Here the recorded IC50 is given for each entry.
- ASSAY TARGET: Human Calpain 2/NS1 (Homo sapiens)
- Sequence (P17655 whole entry): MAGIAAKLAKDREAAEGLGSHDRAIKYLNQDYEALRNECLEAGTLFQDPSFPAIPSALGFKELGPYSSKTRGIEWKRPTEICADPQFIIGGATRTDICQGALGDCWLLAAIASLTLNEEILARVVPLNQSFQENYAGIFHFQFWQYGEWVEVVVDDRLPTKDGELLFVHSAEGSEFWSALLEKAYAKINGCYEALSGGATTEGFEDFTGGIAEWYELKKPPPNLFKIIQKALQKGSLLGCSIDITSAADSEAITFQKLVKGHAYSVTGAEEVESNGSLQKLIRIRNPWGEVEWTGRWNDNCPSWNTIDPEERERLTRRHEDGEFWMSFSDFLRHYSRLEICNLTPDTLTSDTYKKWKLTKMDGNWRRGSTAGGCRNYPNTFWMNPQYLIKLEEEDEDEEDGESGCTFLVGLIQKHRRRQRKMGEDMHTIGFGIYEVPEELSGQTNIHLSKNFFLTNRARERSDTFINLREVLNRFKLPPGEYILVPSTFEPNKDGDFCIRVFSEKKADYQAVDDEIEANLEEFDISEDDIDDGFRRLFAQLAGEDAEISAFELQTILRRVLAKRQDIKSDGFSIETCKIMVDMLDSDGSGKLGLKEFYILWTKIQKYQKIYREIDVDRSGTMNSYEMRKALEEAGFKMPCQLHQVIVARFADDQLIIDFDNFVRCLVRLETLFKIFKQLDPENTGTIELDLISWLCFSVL
- Sequence (P04632 whole entry partner): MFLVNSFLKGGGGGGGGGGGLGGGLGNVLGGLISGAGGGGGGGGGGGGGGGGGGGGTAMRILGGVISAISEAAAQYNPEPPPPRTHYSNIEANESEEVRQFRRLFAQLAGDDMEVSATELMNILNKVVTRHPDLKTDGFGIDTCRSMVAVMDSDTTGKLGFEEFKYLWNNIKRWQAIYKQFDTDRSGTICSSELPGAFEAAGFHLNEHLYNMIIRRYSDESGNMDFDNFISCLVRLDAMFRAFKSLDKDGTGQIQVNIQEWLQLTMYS
- EXPERIMENT NOTES: Calpain inhibition continuous fluorescence (FRET) assay, Human Calpain 2/NS1
- Assay type: biochemical
- CONDITION DESCRIPTION: read-out: Human Calpain 2/NS1 IC50

Consider the reported IC50 for these molecules:
Look at this molecule and give its reported IC50. Cn1cc(C(=O)NC(Cc2ccccc2)C(=O)C(N)=O)c(-c2cnc3ccccc3c2)n1 (centres unmarked) < 3 µM

Look at this molecule and give its reported IC50. Cc1nc(-c2ccccc2)c(C(=O)NC(Cc2cc(Cl)cc(Cl)c2)C(=O)C(N)=O)o1 (centres unmarked) < 3 µM

Look at this molecule and give its reported IC50. Cn1cc(C(=O)NC(CCC(F)(F)F)C(=O)C(N)=O)c(-c2ccccc2)n1 (centres unmarked) 3 to 10 µM

Look at this molecule and give its reported IC50. NC(=O)C(=O)C(Cc1ccccc1)NC(=O)c1oc(C(F)(F)F)nc1-c1ccccc1F (centres unmarked) < 3 µM

Look at this molecule and give its reported IC50. COc1cccc(-c2nn(C)cc2C(=O)NC(Cc2ccccc2)C(=O)C(N)=O)c1 (centres unmarked) < 3 µM

New cases:
Look at this molecule and give its reported IC50. NC(=O)C(=O)C(Cc1ccccc1)NC(=O)c1nsnc1-c1ccc2c(c1)C(=O)N(Cc1ccccc1)C2 (centres unmarked) < 3 µM

Look at this molecule and give its reported IC50. Cn1cc(C(=O)NC(Cc2ccccc2)C(=O)C(N)=O)c(-c2cccc3c2OCCO3)n1 (centres unmarked) < 3 µM

Look at this molecule and give its reported IC50. Cn1cc(C(=O)NC(C(=O)C(N)=O)c2ccc3ccccc3c2)c(-c2ccccc2F)n1 (centres unmarked) < 3 µM

Look at this molecule and give its reported IC50. CC(C)n1cc(C(=O)NC(Cc2ccccc2)C(=O)C(N)=O)c(-c2ccc(F)cc2)n1 (centres unmarked) < 3 µM

Look at this molecule and give its reported IC50. Cn1cc(C(=O)NC(Cc2ccccc2)C(=O)C(N)=O)c(-c2ccccc2C(F)(F)F)n1 (centres unmarked) 3 to 10 µM

Look at this molecule and give its reported IC50. COc1nccc(-n2nc(C)cc2C(=O)NC(Cc2ccccc2)C(=O)C(N)=O)n1 (centres unmarked) < 3 µM

Look at this molecule and give its reported IC50. Cn1cc(C(=O)NC(C=O)Cc2ccccc2)c(-c2ccccc2F)n1 (centres unmarked) < 3 µM

* * *

- ASSAY TARGET: Human Calpain 9/NS1 (Homo sapiens, UniProt O14815)
- Sequence (O14815 whole entry): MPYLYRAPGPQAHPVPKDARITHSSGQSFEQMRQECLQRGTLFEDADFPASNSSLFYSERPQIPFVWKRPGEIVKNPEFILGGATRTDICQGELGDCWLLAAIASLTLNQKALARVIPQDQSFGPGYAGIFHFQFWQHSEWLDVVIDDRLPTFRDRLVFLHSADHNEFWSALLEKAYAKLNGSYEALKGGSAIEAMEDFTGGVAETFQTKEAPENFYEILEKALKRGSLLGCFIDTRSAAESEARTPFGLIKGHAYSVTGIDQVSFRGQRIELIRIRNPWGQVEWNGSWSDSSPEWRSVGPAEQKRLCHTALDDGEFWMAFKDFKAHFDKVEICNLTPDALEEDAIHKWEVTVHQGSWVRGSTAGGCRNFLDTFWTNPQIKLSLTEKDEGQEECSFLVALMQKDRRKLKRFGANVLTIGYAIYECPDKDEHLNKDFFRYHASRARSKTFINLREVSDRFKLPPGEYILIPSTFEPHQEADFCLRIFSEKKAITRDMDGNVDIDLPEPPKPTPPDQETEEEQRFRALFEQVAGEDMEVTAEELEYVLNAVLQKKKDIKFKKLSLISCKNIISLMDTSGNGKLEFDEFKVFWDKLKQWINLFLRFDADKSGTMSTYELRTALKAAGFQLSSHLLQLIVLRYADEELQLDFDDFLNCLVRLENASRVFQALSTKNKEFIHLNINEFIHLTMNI
- Sequence (P04632 whole entry partner): as the sequence (P04632 whole entry partner) above
- EXPERIMENT NOTES: Calpain inhibition continuous fluorescence (FRET) assay, Human Calpain 9/NS1
- Assay type: biochemical
- CONDITION DESCRIPTION: read-out: Human Calpain 9/NS1 IC50
pIC50: −log10 of the molar value.
Here the recorded pIC50 is given for each entry.

Consider the reported pIC50 for these molecules:
Look at this molecule and give its reported pIC50. Cn1cc(C(=O)NC(Cc2ccccc2)C(=O)C(N)=O)c(-c2n[nH]c3ccccc23)n1 (stereo not shown) [Compound 482] > 5.52

Look at this molecule and give its reported pIC50. Cn1cc(C(=O)NC(C(=O)C(N)=O)c2ccc3ccccc3c2)c(-c2ccccc2F)n1 (stereo not shown) [Compound 579] > 5.52

Look at this molecule and give its reported pIC50. Cn1cc(C(=O)NC(Cc2ccccc2)C(=O)C(N)=O)c(-c2ccnc3ccccc23)n1 (stereo not shown) [Compound 611] > 5.52

Shift focus to the following entry.
Look at this molecule and give its reported pIC50. CC#Cc1nn(-c2ccccc2)cc1C(=O)NC(Cc1ccccc1)C(=O)C(N)=O (stereo not shown) [Compound 562] < 5.00
